B1: TPR 5TU (parent)
chain: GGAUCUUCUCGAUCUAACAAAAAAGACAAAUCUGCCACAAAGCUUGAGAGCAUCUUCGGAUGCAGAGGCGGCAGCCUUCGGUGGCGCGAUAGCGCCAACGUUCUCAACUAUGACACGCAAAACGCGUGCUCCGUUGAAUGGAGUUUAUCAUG

variants of: B1; assay: polymerase ribozyme fitness, log enrichment relative to wild type (log ratio); higher = more active; in vitro selection for triplet polymerase activity
This sample holds only a part of the variants without activity.
Criterion: polymerase ribozyme fitness (log ratio) meeting or surpassing -3. Met: rule met. Not met: rule not met.

Determine whether this variant has polymerase ribozyme fitness (log ratio) no lower than -3: C85U U90C
rule not met

Item: U53A C63A A66G G67A G84A A97G
rule not met

Next variant: C85A C125U
rule met

What about this variant? C8A G92C
rule not met

Same question, A22G A113C this time
rule met

Next record, please: A20U A23C A47C U55G G86U A91G
rule not met

Now the same for A49C G68A
rule not met

Subsequent entry: C5G U6A C32G U77A C87G C114U
rule not met

Next record, please: A26C A30U C79U
rule not met

Now try U56A C93G .
rule not met

What do we get for A73G C76U C93A C99A U145A ?
rule not met

Would you kindly repeat that for A30U C54U C85U ?
rule not met

Would you kindly repeat that for G83U C105G A107G U135G G152C ?
rule not met

Another variant: A21G G80A C99G A119U
rule met

Same question for C5U G84A A150C please.
rule not met

// repeat for A40U C69A G143C and report
rule met

Record: C51A C75U
rule met

Could you do the same for A40C U44A A60G C69U C72U G83C U104A U127G G152A , please?
rule not met

Next entry: U44C G83C U148A
rule not met

Item: A20C C63U G88C C95U
rule not met

Check A89U A91U too.
rule not met

Entry to check: A64G U82G A91U C95U A110U U111G
rule not met

Now give it for G58U too.
rule met

Likewise for G58A G81A ?
rule met

Please give the result for A24U C87U too.
rule met

Next record, please: A23U G42C C54U C76A C93A U127C G133C
rule not met

And A12U C76G C85U C103A G126C U145G ?
rule not met

Also U31C G86C C93U A98U ?
rule met

Also A28G U55G G58C G88C G140U ?
rule not met

Also need G124A A137G , thanks.
rule met

// query: A28G G46A C85A A91G
rule not met

Similarly, G50U U144G U145A ?
rule met

Try A30U C57A A73G G81C G92U G141A U148A next.
rule not met

For U4A A29U C38U U44A U55A C57U C87G C95G then?
rule not met

Then what about the variant G62A C99U ?
rule met

Now this one: C38U G83U C123U U148C
rule met

A41U A52G U55A C69A G86U ?
rule not met

Same read-out for A3C A23U U44A U45C C95U C105G A106C C123U A137G ?
rule not met

Okay, and A60C G71A C85A G143C ?
rule not met

Continue with A21C U45G C54G G143C
rule not met

Could you do the same for A30U G58C U90G C95A , please?
rule not met

// query: U31A A52C A91U
rule not met

Now consider U55C G74C .
rule not met

Another variant to check: U15G C85U C87A
rule not met

Try the variant U104G G141U
rule met
